Data provenance is patent US3941800A.

tested on: oat grains; test: Growth inhibition/oat grains; type: in vivo; conditions: 72 h; 250 ppm; shoot length after 3 days vs control; dark, 25°C, pH 6
Criterion: inhibition at 250 ppm meeting or surpassing 70%. Met: class 1. Not met: class 0.

Input: Reported inhibition at 250 ppm at or above 70%? Cc1cc(C(c2ccccc2)(c2ccc(Cl)cc2)n2cncn2)no1 (centres unmarked)
Output: class 1

Input: Record O=c1ccc(=O)[nH][nH]1 [maleic acid hydrazide, reference compound] ; criterion: inhibition at 250 ppm no lower than 70%. Met?
Output: class 0

Input: hey, is inhibition at 250 ppm for this one >= 70%? C[N+](C)(C)CCCl [reference compound]
Output: class 0

Input: Decide: is the reported value of inhibition at 250 ppm for Cc1cc(C(c2ccccc2)(c2ccccc2)n2cncn2)no1 equal to or greater than 70%?
Output: class 1

Input: Decide: is the reported value of inhibition at 250 ppm for Cn1ccnc1C(c1ccccc1)(c1ccc(C(C)(C)C)cc1)n1cncn1 (centres unmarked) equal to or greater than 70%?
Output: class 0

Input: Could you verify whether the entry Cc1cc(C(c2ccccc2)(c2ccc(F)cc2)n2cncn2)no1 (centres unmarked) shows inhibition at 250 ppm of no less than 70%?
Output: class 1

Input: Assess whether reported inhibition at 250 ppm for CN(C)NC(=O)CCC(=O)O [succinic acid 2,2-dimethylhydrazide, reference compound] sits at 70% or higher.
Output: class 0

====

system: linseed; test: Growth inhibition/linseed test; assay type: in vivo; conditions: 72 h; 250 ppm; root length after 3 days vs control; dark, 25°C, pH 6
Is inhibition at 250 ppm at least 30%? Then True. If not, False.

Input: In plain terms: is recorded inhibition at 250 ppm at least 30% for Cc1cc(C(c2ccccc2)(c2ccc(F)cc2)n2cncn2)no1 (stereo not drawn) ?
Output: True

Input: Is inhibition at 250 ppm for CN(C)NC(=O)CCC(=O)O [succinic acid 2,2-dimethylhydrazide, reference compound] at or above 30%?
Output: False

Input: Decide: is the reported value of inhibition at 250 ppm for Cc1cccc(C(c2ccccc2)(c2nccn2C)n2cncn2)c1 (stereo not drawn) equal to or greater than 30%?
Output: True

Input: Dear colleague, could you confirm whether O=c1ccc(=O)[nH][nH]1 [maleic acid hydrazide, reference compound] has inhibition at 250 ppm at or above 30%?
Output: True

Input: Answer whether inhibition at 250 ppm of Cc1cc(C(c2ccccc2)(c2ccc(Cl)cc2)n2cncn2)no1 (stereo not drawn) is greater than or equal to 30%.
Output: True

====

test system: beans (Phaseolus vulgaris); experiment: Growth inhibition/bean plants; assay type: in vivo; conditions: 500 ppm spray on beans 10 cm high; length after 8 days; water control 26 cm
MEASUREMENT_LABEL: Length in cm with a concentration of active compound of 500 ppm (cm)
State the answer as a number, implicitly in cm.

Input: Given the entry Cc1cc(C(c2ccccc2)(c2ccc(F)cc2)n2cncn2)no1 (stereo not shown) , what Length in cm with a concentration of active compound of 500 ppm was observed with beans (Phaseolus vulgaris)?
Output: 10.5

Input: Query for beans (Phaseolus vulgaris): what Length in cm with a concentration of active compound of 500 ppm does the record show for O=c1ccc(=O)[nH][nH]1 [maleic acid hydrazide, reference compound] ?
Output: 12

Input: Observed Length in cm with a concentration of active compound of 500 ppm on beans (Phaseolus vulgaris) for Cc1cc(C(c2ccccc2)(c2ccc(Cl)cc2)n2cncn2)no1 (stereo not shown) , please.
Output: 10.0

Input: Report Length in cm with a concentration of active compound of 500 ppm for Cn1ccnc1C(c1ccccc1)(c1ccc(-c2ccccc2)cc1)n1cncn1 (stereo not shown) tested on beans (Phaseolus vulgaris).
Output: 11.5
